assay: NCI Yeast Anticancer Drug Screen. Data for the mec2-1 strain (AID 157); details: S. cerevisiae mec2-1 strain, at 50.0 µM
The panel holds about 79,000 compounds, 15% with a hit somewhere; the sample as a whole holds those more often. The source made the active and inactive calls. No stated cut-off is given here; in the data, active means growth inhibition above about 70%; inactive means the rest.
Result category, one only: active, inactive

Answer briefly: the call reported for C[Si](C)(C)CC(c1ccccc1)C(O)c1ccccc1 (stereo unspecified) in this assay.
active

Answer briefly: the call reported for "COc1ccc(Cc2c3ccccc3cc[n+]2C)cc1Oc1ccc(Cc2c3ccccc3cc[n+]2C)cc1" in this assay.
inactive

Answer briefly: the call reported for COC(=O)C(=O)C(=O)C1CCCC(c2ccccc2)C1=O (stereo unspecified) in this assay.
active

Answer briefly: the call reported for "O=C(O)c1ccccc1N=N/C(=N\Nc1cc(S(=O)(=O)O)ccc1O)c1ccccc1" in this assay.
inactive

Answer briefly: the call reported for N#CC(C(=O)CCc1nc2ccccc2[nH]1)c1c(Cl)cccc1Cl (stereo unspecified) in this assay.
inactive

Answer briefly: the call reported for "CCCCCCCCCCCCCCSC(=NCC)NCC" in this assay.
active

* * *

test: NCI Yeast Anticancer Drug Screen. Data for the bub3 strain (AID 167); conditions: S. cerevisiae bub3 mutant strain, at 50.0 µM (retest, dose inferred, filed as 5.0)
The panel holds about 79,000 compounds, 15% with a hit somewhere; the sample as a whole holds those more often. Active and inactive are the calls of the source. No stated cut-off is given here; in the data, active means growth inhibition above about 70%; inactive means the rest.
Result category, one only: active, inactive

Answer briefly: the call reported for O=C1/C(=C\c2ccccc2)C(NC2CCCCC2)c2ccccc21 (stereo not given) in this assay.
active

Answer briefly: the call reported for C/C(=N\NC(N)=S)C(CN1CCCCC1)C(C1=C(O)c2ccccc2OC1)c1ccccc1 (stereo not given) in this assay.
active

Answer briefly: the call reported for "Nc1ccccc1N=Nc1c(S(=O)(=O)O)cc2cc(S(=O)(=O)O)cc(O)c2c1O" in this assay.
inactive

Answer briefly: the call reported for COC1=CC(=O)c2c(O)c3c(c(O)c2C1=O)OC1(Oc2c(cc4cc(C)oc(=O)c4c2O)CC1O)C3O (stereo not given) in this assay.
active

Answer briefly: the call reported for "COc1cccc(/C=C2/Sc3scc(-c4ccccc4)[n+]3C2=O)c1O" in this assay.
inactive

Answer briefly: the call reported for "CCn1c2ccc([N+](=O)[O-])cc2c2c([N+](=O)[O-])c(-n3cccc3)ccc21" in this assay.
inactive

Answer briefly: the call reported for "CN1CCN(CC(C(=O)O)(c2ccccc2)c2ccccc2)CC1" in this assay.
inactive

Answer briefly: the call reported for "O=c1ccnc(Nc2ccc[nH]c2=S)[nH]1" in this assay.
inactive

Answer briefly: the call reported for "CCCC/C=C(/CCCNCCc1ccccc1)[Si](C)(C)C" in this assay.
active

Answer briefly: the call reported for "Cn1c(=S)c2[nH]c(=S)[nH]c2n(C)c1=O" in this assay.
active

* * *

test: NCI Yeast Anticancer Drug Screen. Data for the mlh1 rad18 strain (AID 175); settings: S. cerevisiae mlh1 rad18 strain growth inhibition; at 5.0 µM (retest, dose inferred, filed as 0.5); stronger effect = higher value
Compounds without any hit were thinned out: in the full panel of roughly 79,000, 15% have a hit. The source made the active and inactive calls. Rule as the data show it: active = growth inhibition above about 70%; inactive = the rest.
Please respond with reported growth inhibition for every item in the list.

Provide one value: measured growth inhibition of "COc1ccc(C(=O)O)c(-c2c(C(=O)O)ccc(OC)c2OC(C)=O)c1"
14% (inactive)

Provide one value: measured growth inhibition of "O=C(/C(O)=C(\O)C(=O)N(C1CCCCC1)C1CCCCC1)N(C1CCCCC1)C1CCCCC1"
14% (inactive)

Provide one value: measured growth inhibition of "O=C1Nc2c(Cl)cc(Cl)cc2/C1=N/N=C/c1ccccc1O"
15% (inactive)

Provide one value: measured growth inhibition of "Cc1[nH]c2ccccc2c1/C=C1/CCCCCCC1=O"
-7% (inactive)

Provide one value: measured growth inhibition of "CCC(=S)N(C)O"
98% (active)

Provide one value: measured growth inhibition of "C/C(CCC(=O)O)=N/Nc1ccc(C(=O)O)cc1"
5% (inactive)

* * *

test: NCI Yeast Anticancer Drug Screen. Data for the mec2-1 strain (AID 157); conditions: S. cerevisiae mec2-1 strain, at 50.0 µM (retest, dose inferred, filed as 5.0)
The panel holds about 79,000 compounds, 15% with a hit somewhere; the sample as a whole holds those more often. The source made the active and inactive calls. Rule as the data show it: active = growth inhibition above about 70%; inactive = the rest.
Result category, one only: class 1 for active, class 0 for inactive

Answer briefly: the call reported for "CC(C)N=Cc1cc(I)cc(I)c1O.CC(C)N=Cc1cc(I)cc(I)c1O.[Co]" in this assay.
class 1

Answer briefly: the call reported for "Nc1cc(Cl)c(I)cc1Cl" in this assay.
class 1

Answer briefly: the call reported for "O=C(CCl)[O][Bi]([O]C(=O)CCl)([c]1ccccc1)([c]1ccccc1)[c]1ccccc1" in this assay.
class 0

Answer briefly: the call reported for "CCCCCCCCCCCCOC(=O)C[n+]1cccc(C(=O)Nc2ccccc2)c1" in this assay.
class 1

Answer briefly: the call reported for "CCOC(CN(C)C(=O)Nc1ccc(Cl)c(Cl)c1)OCC" in this assay.
class 0

Answer briefly: the call reported for "O=C(NNc1ncccn1)c1ccc(C(=O)NNc2ncccn2)cc1" in this assay.
class 1

* * *

Please respond with reported growth inhibition for every item in the list.
test: NCI Yeast Anticancer Drug Screen. Data for the mlh1 rad18 strain (AID 175); conditions: S. cerevisiae mlh1 rad18 strain growth inhibition; at 5.0 µM (retest, dose inferred, filed as 0.5); stronger effect = higher value
This is part of a sample that, as a whole, favours compounds with a hit. Of some 79,000 tested, about 15% had one in any assay.
I only need the number, in %, no unit after it.

Provide one value: measured growth inhibition of CN(C)c1ccc2c(c1)N(C)c1ccccc1C2(Cl)c1ccccc1 (stereo not drawn)
95

Provide one value: measured growth inhibition of "Cc1cccc[n+]1CC(=O)c1cccc(O)c1"
-2

Provide one value: measured growth inhibition of "O=C(C1=Cc2ccccc2OC1)N1CCN(c2cccc(Cl)c2)CC1"
-12

Provide one value: measured growth inhibition of "CCOC(=O)C1=C(C)NC(C)=C(C(=O)OCC)C1c1c(-c2ccccc2)noc1C"
2

Provide one value: measured growth inhibition of "Nc1ccc(S(=O)(=O)C23CC4CC(CC(C4)C2)C3)cc1"
13

Provide one value: measured growth inhibition of "CCCCCCCCCCCCNC(=O)C[n+]1cccc(C(N)=O)c1"
-1

Provide one value: measured growth inhibition of "CCc1ccc(/C=C/c2ccc([N+](=O)[O-])cc2)nc1"
3

Provide one value: measured growth inhibition of CC(=O)OCC1OC(Sc2ccc3ccccc3c2)C(OC(C)=O)C(OC(C)=O)C1OC(C)=O (stereo not drawn)
0

Provide one value: measured growth inhibition of "O=C1c2ccc(O)c(O)c2C(=O)c2c(O)ccc(O)c21"
91

Provide one value: measured growth inhibition of CCN1CCC(O)(/C=C/c2ccc(Cl)c(Cl)c2)C(C(=O)/C=C/c2ccc(Cl)c(Cl)c2)C1 (stereo not drawn)
99

Provide one value: measured growth inhibition of "O=C(CC(=O)c1ccccc1)CC(=O)c1ccccc1Cl"
0

Provide one value: measured growth inhibition of "C#C[C@]1(OC(C)=O)CC[C@H]2[C@@H]3CCC4=CC(=O)CC[C@@H]4[C@H]3CC[C@@]21C"
3

Provide one value: measured growth inhibition of "O=C(Nc1ccc(Br)cc1)Oc1ccccc1C(=O)Nc1ccccc1"
4

Provide one value: measured growth inhibition of "CC1(C)CCC2(CC1)CC(=O)OC(=O)C2"
-145

Provide one value: measured growth inhibition of "Clc1ccccc1NN(Cc1ccccn1)c1ccccc1Cl"
3

Provide one value: measured growth inhibition of "OCCCNc1nc2c(Cl)cc(Cl)cc2c2ccccc12"
4

Provide one value: measured growth inhibition of ClC(Cl)(Cl)C1OCOC(C(Cl)(Cl)Cl)O1 (stereo not drawn)
33

Provide one value: measured growth inhibition of CCCCCCC(=O)OCCN(CCOC(=O)CCCCCC)C(=O)C(C)OC(=O)CCCCCC (stereo not drawn)
-3

Provide one value: measured growth inhibition of "c1ccc(C2=NC(=c3ccc(=C4N=C(c5ccccc5)C(c5ccccc5)=N4)cc3)N=C2c2ccccc2)cc1"
1

Provide one value: measured growth inhibition of "N#Cc1c(-c2ccc(Cl)cc2)c(-c2ccc(Cl)cc2)nn(CCOC(=O)CN)c1=O"
22

Provide one value: measured growth inhibition of "C=CCSc1nc2ccc(N3C(=O)C=CC3=O)cc2s1"
85

Provide one value: measured growth inhibition of CC1=Nc2ccccc2C1C(Cc1ccccc1N)c1c(C)[nH]c2ccccc12 (stereo not drawn)
11

Provide one value: measured growth inhibition of "CC(C)(C)C(=O)CC(=O)C(F)(F)C(F)(F)C(F)(F)F.[Ag]"
98

Provide one value: measured growth inhibition of COC1OC(CI)C(OC(c2ccccc2)(c2ccccc2)c2ccccc2)C(OC(c2ccccc2)(c2ccccc2)c2ccccc2)C1OC(c1ccccc1)(c1ccccc1)c1ccccc1 (stereo not drawn)
-17

Provide one value: measured growth inhibition of "O=C(Nc1cccc(Cl)c1)c1ccc([N+](=O)[O-])cc1"
17

Provide one value: measured growth inhibition of O=C(CN(Cc1ccccc1)Cc1ccccc1)N1CCc2c([nH]c3ccccc23)C1c1cccnc1 (stereo not drawn)
32

Provide one value: measured growth inhibition of "Oc1c(N2CCOCC2)cc(-c2cc(N3CCOCC3)c(O)c3ccccc23)c2ccccc12"
35

Provide one value: measured growth inhibition of "CCCCCCCCCCCC(=O)N(CCOC(=O)c1ccco1)CCOC(=O)c1ccco1"
34

Provide one value: measured growth inhibition of "CCCCCCCCCCCC(=O)NN"
8

Provide one value: measured growth inhibition of "O=C1CSc2ccccc2-n2cccc21"
5

Provide one value: measured growth inhibition of "CN(Cc1cc(Cl)cc(Cl)c1O)Cc1c(O)ccc2ccccc12"
12

Provide one value: measured growth inhibition of "Oc1ccc(Cc2cccc(Br)c2)c(O)c1"
-3

Provide one value: measured growth inhibition of "NNc1c(Cl)cc(Cl)cc1Cl"
51

Provide one value: measured growth inhibition of CN(Cc1cnc2nc(N[Si](C)(C)C)nc(N[Si](C)(C)C)c2n1)c1ccc(C(=O)NC(CCC(=O)O[Si](C)(C)C)C(=O)O[Si](C)(C)C)cc1 (stereo not drawn)
15

Provide one value: measured growth inhibition of COC12C(COC(N)=O)C3=C(C(=O)C(C)=C(N)C3=O)N1CC1C2N1C(=O)/C=C/c1ccccc1 (stereo not drawn)
27

Provide one value: measured growth inhibition of CC(C)(C)Oc1ccc(CC(NC(=O)OCC2c3ccccc3-c3ccccc32)C(=O)O)cc1 (stereo not drawn)
-3

Provide one value: measured growth inhibition of CCCCCCCC(=O)N1CCCCC1CC (stereo not drawn)
-118

Provide one value: measured growth inhibition of "O=[N+]([O-])c1cc(C(F)(F)F)cc([N+](=O)[O-])c1CCl"
100

Provide one value: measured growth inhibition of "COC1=CC(=O)c2ncc(Cl)cc2C1=O"
28

Provide one value: measured growth inhibition of "[O-][n+]1ccc(Br)c(/C=C/c2ccccc2)c1"
2

Provide one value: measured growth inhibition of "CCOC(=O)/C(Cl)=C(\C)Nc1nc2c(ccc3ccccc32)s1"
0

Provide one value: measured growth inhibition of "Cc1c(F)c(C)c(C(=O)O)c(C)c1F"
27

Provide one value: measured growth inhibition of COc1ccccc1C1c2cc3c(cc2OC2(OC)COC(=O)C12)OCO3 (stereo not drawn)
23
